Molecular target: UniProt O60341
Assay: Inhibition of recombinant human KDM1A using fluorogenic substrate incubated for 30 mins followed by substrate addition measured after 10 mins by fluorescence based assay
outcome_measure: IC50
Field note: include the unit after the figure.

State the recorded IC50 for this entry: `Cn1c(C(=O)Nc2cccc3c2N(Cc2ccc(OC4CCNCC4)cc2)CCC3)cc2ccccc21` 50 nM

---

Molecular target: Lysine-specific histone demethylase 1A (Homo sapiens, UniProt O60341)
Test: Inhibition of recombinant human KMD1A (172 to 852 residues) using Bio-H3K4me2 peptide as substrate incubated for 1 hr by Lance ultra TR-FRET assay
outcome_measure: IC50 (µM)
Answers are plain numbers, in µM.

Requested field: IC50. Item: CC1(C)C(N[C@@H]2C[C@H]2c2ccccc2)CCC1N[C@@H]1C[C@H]1c1ccccc1 (stereo partly specified) 4.8

---

Molecular target: MAO-A (Homo sapiens)
Assay: Inhibition of recombinant MAO-A (unknown origin) using luciferin substrate at 100 uM preincubated for 15 mins followed by substrate addition measured after 1 hr by luciferase based assay relative to control
Conditions: probe luciferin substrate, time 75 min
outcome_measure: inhibition at 1 h, 100 µM

Tell me the measured inhibition at 1 h, 100 µM of `Cc1ccc(-c2nc(SCc3cn(CC(=O)NC(=O)Nc4ccccn4)nn3)nc(Nc3cccc(C(F)(F)F)c3)c2C#N)cc1` , please. < 5%

---

Molecular target: Amine oxidase [flavin-containing] B (Homo sapiens)
Sequence (P27338 whole entry): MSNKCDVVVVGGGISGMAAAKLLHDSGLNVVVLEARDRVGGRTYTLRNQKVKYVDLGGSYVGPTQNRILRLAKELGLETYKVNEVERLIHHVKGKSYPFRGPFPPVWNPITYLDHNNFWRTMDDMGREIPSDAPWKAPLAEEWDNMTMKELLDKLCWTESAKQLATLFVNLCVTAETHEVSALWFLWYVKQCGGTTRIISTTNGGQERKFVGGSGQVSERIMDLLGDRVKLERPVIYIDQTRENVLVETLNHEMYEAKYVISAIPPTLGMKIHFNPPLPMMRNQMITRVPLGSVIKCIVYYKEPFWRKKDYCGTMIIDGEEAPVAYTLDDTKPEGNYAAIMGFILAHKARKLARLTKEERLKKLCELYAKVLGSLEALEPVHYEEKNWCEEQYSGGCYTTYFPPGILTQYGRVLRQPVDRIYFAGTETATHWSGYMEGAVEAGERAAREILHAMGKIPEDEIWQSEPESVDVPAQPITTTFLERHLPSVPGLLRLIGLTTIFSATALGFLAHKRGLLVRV
outcome_measure: Ki

Need Ki of CN1CCN(C(=O)NC2CC2c2cc(F)cc(F)c2OCc2ccccc2)CC1 (stereo unspecified) , thanks. > 250 µM

---

Target: Lysine-specific demethylase 5A (Homo sapiens, UniProt P29375)
Sequence (P29375 whole entry): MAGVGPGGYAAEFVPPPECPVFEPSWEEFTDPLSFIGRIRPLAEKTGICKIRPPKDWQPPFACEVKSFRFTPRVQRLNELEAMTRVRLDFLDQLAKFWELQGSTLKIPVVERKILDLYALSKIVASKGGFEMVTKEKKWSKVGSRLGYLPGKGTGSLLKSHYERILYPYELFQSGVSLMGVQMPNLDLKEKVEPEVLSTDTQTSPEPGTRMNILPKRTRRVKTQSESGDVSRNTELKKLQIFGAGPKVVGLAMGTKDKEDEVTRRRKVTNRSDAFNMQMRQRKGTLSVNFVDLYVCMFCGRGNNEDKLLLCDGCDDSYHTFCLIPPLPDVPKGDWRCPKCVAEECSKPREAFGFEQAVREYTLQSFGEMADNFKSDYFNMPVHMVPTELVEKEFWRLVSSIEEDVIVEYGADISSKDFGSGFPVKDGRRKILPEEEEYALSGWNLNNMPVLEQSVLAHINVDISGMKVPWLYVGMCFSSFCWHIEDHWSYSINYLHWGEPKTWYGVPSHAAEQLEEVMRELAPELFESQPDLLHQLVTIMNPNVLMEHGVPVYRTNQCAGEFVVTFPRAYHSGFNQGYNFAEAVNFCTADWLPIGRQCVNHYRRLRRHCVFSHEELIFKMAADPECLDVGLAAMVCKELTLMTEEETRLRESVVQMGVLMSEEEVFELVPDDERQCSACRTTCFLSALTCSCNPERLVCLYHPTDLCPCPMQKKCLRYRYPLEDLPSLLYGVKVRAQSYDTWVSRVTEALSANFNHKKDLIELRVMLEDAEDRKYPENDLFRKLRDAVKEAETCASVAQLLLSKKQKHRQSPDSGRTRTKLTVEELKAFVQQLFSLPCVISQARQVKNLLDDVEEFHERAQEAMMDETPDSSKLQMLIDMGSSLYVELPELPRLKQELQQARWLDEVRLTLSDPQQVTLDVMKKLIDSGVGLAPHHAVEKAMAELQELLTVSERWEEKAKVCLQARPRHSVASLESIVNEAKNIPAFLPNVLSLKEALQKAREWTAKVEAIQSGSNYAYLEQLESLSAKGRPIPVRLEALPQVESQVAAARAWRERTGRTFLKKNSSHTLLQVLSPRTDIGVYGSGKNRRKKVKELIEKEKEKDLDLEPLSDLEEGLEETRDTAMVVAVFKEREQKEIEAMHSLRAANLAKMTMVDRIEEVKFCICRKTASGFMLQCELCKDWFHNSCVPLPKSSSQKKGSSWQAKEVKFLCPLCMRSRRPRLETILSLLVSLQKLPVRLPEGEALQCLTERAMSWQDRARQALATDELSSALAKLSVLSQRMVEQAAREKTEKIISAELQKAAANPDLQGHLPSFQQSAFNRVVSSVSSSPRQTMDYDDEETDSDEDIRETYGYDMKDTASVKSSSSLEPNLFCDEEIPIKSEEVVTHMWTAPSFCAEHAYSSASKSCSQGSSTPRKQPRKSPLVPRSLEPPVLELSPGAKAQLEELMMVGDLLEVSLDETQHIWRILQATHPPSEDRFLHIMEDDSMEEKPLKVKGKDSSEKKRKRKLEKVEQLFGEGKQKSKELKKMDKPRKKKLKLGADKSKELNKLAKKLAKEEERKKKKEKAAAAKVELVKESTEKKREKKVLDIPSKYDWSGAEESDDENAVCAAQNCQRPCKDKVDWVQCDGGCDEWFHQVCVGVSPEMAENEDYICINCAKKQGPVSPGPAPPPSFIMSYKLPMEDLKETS
Experiment: Inhibition of full-length KDM5A ([…])(unknown origin) using ARTK(me3)-QTARKSTGGKAPRKQLA-GGK(biotin) as substrate preincubated for 10 mins followed by substrate addition measured after 45 mins by LANCE Ultra assay
outcome_measure: IC50

Entry `O=C(O)c1ccc(-n2nc(-c3ccccc3O)nc2-c2ccccc2O)cc1` has what IC50? 5 µM

---

System: SUP-B15
Assay: cells
Conditions: Homo sapiens
outcome_measure: IC50 (µM)
Numbers only, in µM.

What value of IC50 has been recorded for this entry: `CC(C)(C)OC(=O)N1CCN(C(=S)SCC(=O)Nc2ccc(C(=O)/C=C/c3ccccc3F)cc2)CC1` 1.87

---

Molecular target: Lysine-specific demethylase 5A (Homo sapiens, UniProt P29375)
Assay: Inhibition of full-length human KDM5A expressed in recombinant baculovirus expression system using […] peptide as substrate incubated for 30 to 45 mins by TR-FRET assay
Parameters: species or system Sf9
outcome_measure: IC50 (nM)
Numbers only, in nM.

Param item = `Cc1cc(O[C@H](C)C(=O)NCC(=O)NCC(=O)O)c2c3c(c(=O)oc2c1)CCC3` ; retrieve measured IC50. 23.8

---

Target: Amine oxidase [flavin-containing] A (Homo sapiens, UniProt P21397)
Sequence (P21397 whole entry): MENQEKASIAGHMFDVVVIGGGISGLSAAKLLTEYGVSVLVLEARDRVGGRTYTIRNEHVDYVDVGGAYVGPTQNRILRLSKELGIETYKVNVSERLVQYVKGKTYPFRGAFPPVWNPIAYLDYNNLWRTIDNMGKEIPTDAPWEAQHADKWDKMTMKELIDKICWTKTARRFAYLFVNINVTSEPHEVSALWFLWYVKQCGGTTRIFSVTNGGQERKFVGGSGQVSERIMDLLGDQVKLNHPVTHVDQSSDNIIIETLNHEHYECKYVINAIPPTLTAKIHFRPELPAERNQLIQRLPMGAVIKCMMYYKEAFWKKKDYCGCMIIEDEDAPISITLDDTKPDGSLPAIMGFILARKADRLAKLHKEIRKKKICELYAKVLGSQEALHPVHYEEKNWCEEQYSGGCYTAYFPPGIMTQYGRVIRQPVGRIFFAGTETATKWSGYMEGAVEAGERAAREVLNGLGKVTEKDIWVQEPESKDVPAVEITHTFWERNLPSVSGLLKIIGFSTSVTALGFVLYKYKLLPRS
Test: Inhibition of MAO-A (unknown origin) by luminescence based assay
outcome_measure: IC50
State the result as a value with its unit after it.

I would be grateful if you could share the reported IC50 for CC1(C)C(N[C@@H]2C[C@H]2c2ccccc2)CCC1N[C@@H]1C[C@H]1c1ccccc1 (stereo partly specified) . 7.29 nM

---

Biological target: UniProtKB P27338
Assay: Inhibition of MAO-B (unknown origin) at 100 uM relative to control
outcome_measure: inhibition at 100 µM (%)
One number for each entry, in %.

Data request, read-out inhibition at 100 µM, for NC1CC1c1ccc(NC(=O)c2ccc(-c3ccccc3)cc2)cc1 (stereo unspecified) 8

---

Target: Amine oxidase [flavin-containing] B (Homo sapiens, UniProt P27338)
Sequence (P27338 whole entry): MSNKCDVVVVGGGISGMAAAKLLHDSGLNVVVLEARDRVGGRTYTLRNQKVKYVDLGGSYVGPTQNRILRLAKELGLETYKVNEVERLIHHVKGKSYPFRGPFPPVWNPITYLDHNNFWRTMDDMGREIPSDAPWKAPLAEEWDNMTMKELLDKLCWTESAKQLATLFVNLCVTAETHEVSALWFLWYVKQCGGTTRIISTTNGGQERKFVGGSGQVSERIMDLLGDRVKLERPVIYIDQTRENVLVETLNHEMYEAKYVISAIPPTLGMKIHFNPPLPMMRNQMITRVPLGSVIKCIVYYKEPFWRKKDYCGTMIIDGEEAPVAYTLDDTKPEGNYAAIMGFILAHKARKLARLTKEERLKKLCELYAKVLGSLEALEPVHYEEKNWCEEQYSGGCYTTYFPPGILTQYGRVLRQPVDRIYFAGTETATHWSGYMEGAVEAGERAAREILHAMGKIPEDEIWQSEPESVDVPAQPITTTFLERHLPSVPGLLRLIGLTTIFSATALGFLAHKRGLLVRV
outcome_measure: IC50

What IC50 value was documented for this molecule, `O=C(c1ccc(OCCN2CCCCC2)cc1)c1c(-c2ccc(O)cc2)sc2cc(O)ccc12` ? > 200 µM

---

Target: Lysine-specific histone demethylase 1A (Homo sapiens, UniProt O60341)
Assay: Inhibition of KDM1A (unknown origin) by fluorescence based assay
Record form. Attribute: IC50. Fill in for each entry.
Numbers only, in µM.

Examples from the recorded data:
{"compound": "O=C(/C=C/c1ccc(O)c2c1[C@H](C(=O)OC(Cc1ccc(O)c(O)c1)C(=O)O)[C@@H](c1ccc(O)c(O)c1)O2)O[C@H](Cc1ccc(O)c(O)c1)C(=O)O (stereo partly drawn)", "study_target": "Lysine-specific histone demethylase 1A (Homo sapiens, UniProt O60341)", "outcome_measure": "IC50", "unit_symbol": "µM", "quantitative_readout": 0.11}
{"compound": "COc1cc2c(cc1OC)-c1c(C)c3ccc(OC)c(OC)c3c[n+]1CC2 [DEHYDROCORYDALINE]", "study_target": "Lysine-specific histone demethylase 1A (Homo sapiens, UniProt O60341)", "outcome_measure": "IC50", "unit_symbol": "µM", "quantitative_readout": 2.44}

Now look at this one.
Query the reported IC50 for Lysine-specific histone demethylase 1A (Homo sapiens, UniProt O60341); item: C=C[C@]1(C)C[C@@H]2OC(=O)C(C)=C2C[C@H]1C(=C)C [ISOGERMAFURENOLIDE] 3.97

---

Target: MAO-A (Homo sapiens, UniProt P21397)
Sequence (P21397 whole entry): as the sequence (P21397 whole entry) above
Test: Inhibition of recombinant MAO-A (unknown origin) at 10 uM by luminometry relative to control
outcome_measure: inhibition at 10 µM
// unit must come after the numeric part

Fill in: inhibition at 10 µM of `COc1cc2c(cc1OC)-c1cc3ccc4c(c3c[n+]1CC2)OCO4` is ___ 70%

---

Target: Lysine-specific demethylase 2A (Homo sapiens)
Sequence (Q9Y2K7 whole entry): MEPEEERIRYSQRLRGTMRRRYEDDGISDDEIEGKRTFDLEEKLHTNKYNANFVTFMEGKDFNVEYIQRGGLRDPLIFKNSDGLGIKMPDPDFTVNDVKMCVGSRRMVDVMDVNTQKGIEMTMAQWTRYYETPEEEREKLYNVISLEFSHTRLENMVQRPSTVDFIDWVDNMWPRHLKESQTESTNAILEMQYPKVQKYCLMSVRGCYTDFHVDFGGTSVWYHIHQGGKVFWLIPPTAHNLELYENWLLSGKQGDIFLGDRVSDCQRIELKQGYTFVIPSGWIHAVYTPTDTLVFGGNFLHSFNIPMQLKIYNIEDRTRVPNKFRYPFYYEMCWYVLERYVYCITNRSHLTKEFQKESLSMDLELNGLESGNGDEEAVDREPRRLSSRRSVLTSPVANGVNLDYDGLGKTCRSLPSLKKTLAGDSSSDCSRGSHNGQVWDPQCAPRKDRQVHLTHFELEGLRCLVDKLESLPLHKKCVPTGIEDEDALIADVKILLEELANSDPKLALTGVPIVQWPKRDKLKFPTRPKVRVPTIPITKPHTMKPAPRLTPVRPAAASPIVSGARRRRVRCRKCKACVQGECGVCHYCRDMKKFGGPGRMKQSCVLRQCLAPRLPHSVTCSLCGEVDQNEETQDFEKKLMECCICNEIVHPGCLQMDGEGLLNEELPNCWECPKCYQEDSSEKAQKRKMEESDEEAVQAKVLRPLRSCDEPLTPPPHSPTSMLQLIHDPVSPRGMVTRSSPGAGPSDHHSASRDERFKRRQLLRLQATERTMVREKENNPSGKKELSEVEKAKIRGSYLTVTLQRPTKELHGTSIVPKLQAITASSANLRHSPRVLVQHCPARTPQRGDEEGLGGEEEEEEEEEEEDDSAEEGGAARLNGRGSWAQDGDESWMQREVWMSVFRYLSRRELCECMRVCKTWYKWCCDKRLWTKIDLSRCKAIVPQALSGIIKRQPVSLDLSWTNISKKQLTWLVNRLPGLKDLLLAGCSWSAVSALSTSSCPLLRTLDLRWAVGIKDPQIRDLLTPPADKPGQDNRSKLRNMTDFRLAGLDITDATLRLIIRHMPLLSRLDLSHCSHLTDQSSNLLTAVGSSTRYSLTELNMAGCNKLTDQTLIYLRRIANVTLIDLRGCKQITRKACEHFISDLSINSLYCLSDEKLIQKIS
outcome_measure: IC50 (µM)
One number for each entry, in µM.

Would you mind telling me what IC50 value was observed for `Cc1c(O)c(=O)ccn1C` ? 6.8
